tested on: A498 renal; experiment: NCI-60 one-dose screen, 48 h (100 = growth as untreated, 0 = no growth, -100 = all killed); conditions: 10 µM unless noted
About 83,000 compounds went through this panel and 20% of them were active in at least one assay; those are over-represented in the sample as a whole.
Binned growth; ranges: L: < 60%; M: ≥ 60% and < 80%; H: ≥ 80%

Prompt: Into which bin does this compound go? "COc1cccc(/C(C)=N/NC(=O)CSc2nc3ccccc3c(=O)n2CCc2ccc(S(N)(=O)=O)cc2)c1"
Response: M

Prompt: Into which bin does this compound go? "N#Cc1ccc(-c2ccc(-c3cccs3)o2)cc1F"
Response: H

Prompt: Into which bin does this compound go? "Nc1c(C(=O)C[C@@H](N)CO)ccc2c1C(=O)CCO2"
Response: L

Prompt: Into which bin does this compound go? "C=C(C)[C@@H]1CC[C@]2(C(=O)NC(COC(=O)C(Cl)Cl)(COC(=O)C(Cl)Cl)COC(=O)C(Cl)Cl)CC[C@]3(C)[C@H](CC[C@@H]4[C@@]5(C)CC[C@H](OC(C)=O)C(C)(C)[C@@H]5CC[C@]43C)[C@@H]12"
Response: H

Prompt: Into which bin does this compound go? "N=C(N)c1ccc(-c2ccc(-c3cccs3)s2)cc1F"
Response: L

Prompt: Into which bin does this compound go? "CCOC(=O)c1cc(N)nc2ccccc12"
Response: H

Prompt: Into which bin does this compound go? Oc1c(C(Nc2ccccc2Br)c2ccccc2)ccc2cccnc12 (centres undefined)
Response: L

Prompt: Into which bin does this compound go? "NC(=O)c1ccc[n+](Cc2ccccc2)c1"
Response: M

Prompt: Into which bin does this compound go? "CCn1c(Cc2ccccc2Nc2c(Cl)cccc2Cl)nnc1SCC(=O)Nc1ccccc1C(F)(F)F"
Response: M

Prompt: Into which bin does this compound go? "CCC(=O)OCc1ccc(OC)cc1"
Response: H

Prompt: Into which bin does this compound go? COC(=O)OC1C(O[C@H]2C[C@H]3[C@@H]4CC=C5C[C@@H](O)CC[C@]5(C)[C@H]4CC[C@]3(C)[C@H]2[C@H](C)C(=O)CCC(C)C)OCC(O)C1OC1OCC(O)C(O)C1OC(=O)c1ccc(OC)cc1 (some centres undefined)
Response: L

Prompt: Into which bin does this compound go? "CS(=O)(=O)c1ccc(C(=O)Nc2ccc(Cl)c(-c3ccccn3)c2)c(Cl)c1"
Response: L

Prompt: Into which bin does this compound go? "O=C(CC(=O)C(F)(F)C(F)(F)C(F)(F)F)c1cc2ccccc2o1"
Response: H

Prompt: Into which bin does this compound go? "CCNC(=O)c1ccc2c(c1)nc(-c1ccc(Cl)cc1)n2-c1cc(C(C)(C)C)[nH]n1"
Response: L

Prompt: Into which bin does this compound go? CC(=O)C1CCC2C3CC(C)=C4CC(O)CCC4(C)C3CCC12C (centres undefined)
Response: H

Prompt: Into which bin does this compound go? "O=C1Nc2ccc(Cl)cc2/C1=C\c1c(-c2ccc(F)cc2)nc2ccccn12"
Response: L

====

test system: MALME-3M melanoma; test: NCI-60 one-dose screen, 48 h; details: 10 µM unless noted
Compounds without any hit were thinned out: in the full panel of roughly 83,000, 20% have a hit. Calls of active or inactive are those of the source. How the source made its calls: active means growth percent below 10; inactive means the rest.
Hello, when you answer, please use one of the following outcomes: active, inactive

Prompt: Test call, this molecule: "C=C1C(=O)O[C@H]2[C@H]1CC/C(COC(=O)NCc1c[nH]c3ccc(OC)cc13)=C\CC[C@@]1(C)O[C@@H]21"
Response: active

Prompt: Test call, this molecule: "Cc1cccc2nc3ccccc3c(Nc3ccc(NS(C)(=O)=O)cc3)c12"
Response: inactive

Prompt: Test call, this molecule: "CCN(CCC#N)c1ccccc1"
Response: inactive

Prompt: Test call, this molecule: "COc1ccc(NC(=O)Cn2c(=O)sc3c(-c4ccc(Cl)cc4)cc(-c4ccc(Cl)cc4)nc32)cc1"
Response: inactive

Prompt: Test call, this molecule: "COc1cc(NC(=O)CSc2nc3ccc(Cl)cc3c(=O)n2-c2ccccc2)cc(OC)c1OC"
Response: inactive

Prompt: Test call, this molecule: NC(=S)N1N=C(c2ccc(Cl)cc2)CC1c1cc2ccccc2[nH]c1=O (configuration not stated)
Response: inactive

Prompt: Test call, this molecule: CCN1C(=O)C(C)C=C(C)C=C1C (configuration not stated)
Response: inactive

Prompt: Test call, this molecule: "Clc1ccc(-c2cnc3nonc3n2)s1"
Response: inactive

Prompt: Test call, this molecule: "COc1cnc2c(c1)C(=O)c1c-2n(CCCN2CCN(C)CC2)c(=O)c2cc(Cl)ccc12"
Response: inactive

Prompt: Test call, this molecule: CCOC(=O)C1C(=O)C=C(c2ccccc2)CC1c1sc(N(C)Cc2ccccc2)nc1Cl (configuration not stated)
Response: inactive

Prompt: Test call, this molecule: C=CCOC(=O)C1=C(C)NC2=C(C(=O)CC(C)(C)C2)C1c1ccc(OC)cc1 (configuration not stated)
Response: inactive

Prompt: Test call, this molecule: COc1cc(C2CC(=O)Nc3c2cnn3C)cc(OC)c1OC (configuration not stated)
Response: inactive

Prompt: Test call, this molecule: "CCC(=O)OCc1ccc(OC)cc1"
Response: inactive

Prompt: Test call, this molecule: CCSCC1CC(O)(c2ccccc2)C(c2ccccc2)C(c2ccc(F)cc2)O1 (configuration not stated)
Response: active

Prompt: Test call, this molecule: "O=C(c1ccc(OCCN2CCCCC2)cc1)c1c(-c2ccc(O)cc2)sc2cc(O)ccc12"
Response: inactive

Prompt: Test call, this molecule: "COc1ccccc1/C=C/C(=O)CCC(=O)O"
Response: inactive

Prompt: Test call, this molecule: "CC[C@H](C)[C@H](N)C(=O)O"
Response: inactive

Prompt: Test call, this molecule: "COc1ccc(-c2cc(C(=O)Nc3ccc(C)cc3)nc3[nH]c(=O)sc23)cc1"
Response: inactive

Prompt: Test call, this molecule: "CC1CCN(CCCCCOc2ccc3oc4ccc(Cl)cc4c(=O)c3c2)CC1"
Response: inactive

Prompt: Test call, this molecule: "O=C1NN(C(=O)c2ccccc2)C(c2ccc(Cl)c(Cl)c2)=C/C1=C\c1ccccc1[N+](=O)[O-]"
Response: inactive

Prompt: Test call, this molecule: "CCOC(=O)C(CCCCC(NC(C)=O)(C(=O)OCC)C(=O)OCC)(NC(C)=O)C(=O)OCC"
Response: inactive

Prompt: Test call, this molecule: "COc1ccc2[nH]cc(C3(c4c[nH]c5ccc(OC)cc45)C(=O)Nc4ccc(Cl)cc43)c2c1"
Response: inactive

Prompt: Test call, this molecule: "CCn1c(Cc2ccccc2Nc2c(Cl)cccc2Cl)nnc1SCC(=O)Nc1ccccc1C(F)(F)F"
Response: inactive

Prompt: Test call, this molecule: CN1C(=O)C(C2=NNC(c3ccccc3C(=O)O)C2)C(=O)N(C)C1=O (configuration not stated)
Response: inactive

Prompt: Test call, this molecule: "COc1cccc(-c2cc(-c3cccs3)c(C#N)c(=O)[nH]2)c1"
Response: inactive

Prompt: Test call, this molecule: "CC1(C)CN(CCNc2nccc(-c3c(-c4cccc(O)c4)nc4sccn34)n2)S(=O)(=O)N1"
Response: active

Prompt: Test call, this molecule: "CN(C)c1ccc(C2(Cl)c3ccccc3N(C)c3ccccc32)cc1"
Response: inactive

Prompt: Test call, this molecule: "c1ccc(-c2nnn(-c3ccccc3)n2)cc1"
Response: inactive

Prompt: Test call, this molecule: COc1ccc(C(=O)N2N=C(c3ccc(F)cc3)CC2c2cn(-c3ccccc3)nc2-c2ccccc2)cc1 (configuration not stated)
Response: inactive

Prompt: Test call, this molecule: S=C(Nc1ccc(Cl)cc1)Nc1ccc(Cl)cc1 (tested in a mixture with another compound)
Response: active

Prompt: Test call, this molecule: "CCCCCCCC/C=C/CCCCCCCC1=NC(C)(C)CN1C(C)C"
Response: active

Prompt: Test call, this molecule: "Cc1ccc(Nc2cc(Cl)c([N+](=O)[O-])cc2[N+](=O)[O-])cc1"
Response: inactive

Prompt: Test call, this molecule: "O=C(CC(=O)c1ccccc1F)Nc1ccc([N+](=O)[O-])cc1"
Response: inactive

Prompt: Test call, this molecule: COc1cccc(C2C(C#N)=C(N)Oc3cc4c(cc32)OCO4)c1 (configuration not stated)
Response: inactive

Prompt: Test call, this molecule: "COC(=O)CSc1ccc(Cl)cc1"
Response: inactive

Prompt: Test call, this molecule: "COc1ccc(-c2conc2-n2nc(-c3ccccc3)nc2-c2ccccc2)cc1"
Response: inactive

Prompt: Test call, this molecule: "O=C(CCCN1CCC(O)(c2ccc(Br)cc2)CC1)c1ccc(F)cc1"
Response: inactive

Prompt: Test call, this molecule: "COc1cccc(-c2nc3sccn3c2-c2ccnc(NCCN3CCCN(C)S3(=O)=O)n2)c1"
Response: inactive

Prompt: Test call, this molecule: "COc1ccc(/C=C/c2nc3ccccc3c(=O)n2-c2ccc(C#Cc3ccc(C(C)(C)C)cc3)cc2C)c(OC)c1"
Response: inactive

Prompt: Test call, this molecule: "Nc1cc(C(=O)O)cc(C(=O)O)c1"
Response: inactive

Prompt: Test call, this molecule: "COc1cnc2c(c1)C(=O)c1c-2n(CCCN2CCNCC2)c(=O)c2cc(Cl)ccc12"
Response: active

Prompt: Test call, this molecule: "O=C1/C(=C/c2ccccc2)SC(=Nc2ccccc2)N1Nc1ccccc1"
Response: active
